Tested on: Abutilon theophrasti
testName: Post-emergence herbicidal action
Type: in vivo
measurementParameters: 1280 g/ha, rated visually after about 3 weeks vs untreated controls
measuredProperty: herbicidal activity on Abutilon theophrasti (%)
Reply with just the number (in %).

In the examples that follow, each entry is paired with its recorded herbicidal activity on Abutilon theophrasti.
- compound: "Cc1c(Sc2cccc(Cl)c2)c(Oc2ncccn2)nn1C"
  targetOfAssay: "Abutilon theophrasti"
  endpointValue: 80
- compound: "CCc1c(Sc2ccc(F)cc2F)c(Oc2ncc(F)cn2)nn1C"
  targetOfAssay: "Abutilon theophrasti"
  endpointValue: 90

Asked: Hello, I am looking for reported herbicidal activity on Abutilon theophrasti with Abutilon theophrasti for CCc1c(Sc2ccccc2)c(Oc2ncccn2)nn1C . Could you help?
Given back: 100

Asked: Hello, I am looking for reported herbicidal activity on Abutilon theophrasti with Abutilon theophrasti for Cc1c(Sc2ccc(F)cc2Cl)c(Oc2ncc(F)cn2)nn1C . Could you help?
Given back: 80

Asked: Hello, I am looking for reported herbicidal activity on Abutilon theophrasti with Abutilon theophrasti for CCc1c(Sc2cccc(Cl)c2)c(Oc2ncc(F)cn2)nn1C . Could you help?
Given back: 80

* * *

herbicidal activity on Polygonum convolvulus reference
Test system: Polygonum convolvulus
testName: Post-emergence herbicidal action
Format: in vivo
measurementParameters: 1280 g/ha, rated visually after about 3 weeks vs untreated controls
Method: A. Post-Emergence Herbicidal Action and Crop Plant Compatibility Seeds of monocotyledonous and dicotyledonous weeds and crop plants were placed in sandy loam in plastic or wood-fiber pots, covered with soil and cultivated in a greenhouse under controlled growth conditions. 2 to 3 weeks after sowing, the test plants were treated at the one-leaf stage. […]
Reply with just the number (in %).

In the examples that follow, each entry is paired with its recorded herbicidal activity on Polygonum convolvulus.
- molecule: "Cc1c(Sc2cccc(F)c2)c(Oc2ncc(F)cn2)nn1C [Example I-158]"
  endpointValue: 100
- molecule: "Cn1cc(Sc2ccc(F)cc2)c(Oc2ncccn2)n1 [Example I-032]"
  endpointValue: 90
- molecule: "CCn1cc(Sc2ccccc2)c(Oc2ncccn2)n1 [Example I-042]"
  endpointValue: 80
- molecule: "Cc1c(Sc2cccc(Cl)c2)c(Oc2ncccn2)nn1C [Example I-069]"
  endpointValue: 100

Moving on to another molecule below.
Asked: Fill in the blank: the reported herbicidal activity on Polygonum convolvulus of Fc1cnc(Oc2nn3c(c2Sc2ccc(F)cc2F)CCOCC3)nc1 [Example I-192] is ____.
Given back: 100

* * *

Test system: Viola tricolor
testName: Pre-emergence herbicidal action
Assay type: in vivo
measurementParameters: 1280 g/ha, scored visually after about 3 weeks vs untreated controls
measuredProperty: herbicidal activity on Viola tricolor (%)
Reply with just the number (in %).

- compound: "Cc1c(Sc2cccc(Cl)c2)c(Oc2ncccn2)nn1C"
  herbicidal activity on Viola tricolor, %: 100

Asked: Fill in the blank: the reported herbicidal activity on Viola tricolor of COc1cnc(Oc2nn(C)c(C)c2Sc2ccc(Cl)cc2)nc1 is ____.
Given back: 100

Asked: Fill in the blank: the reported herbicidal activity on Viola tricolor of Cc1c(Sc2ccc(F)cc2)c(Oc2ncccn2)nn1C is ____.
Given back: 100

* * *

herbicidal activity on Abutilon theophrasti reference
Test system: Abutilon theophrasti
testName: Post-emergence herbicidal action
Type: in vivo
measurementParameters: 1280 g/ha, rated visually after about 3 weeks vs untreated controls
Reply with just the number (in %).

In the examples that follow, each entry is paired with its recorded herbicidal activity on Abutilon theophrasti.
- compound: "Cc1c(Sc2ccc(F)c(F)c2)c(Oc2ncccn2)nn1C"
  targetOfAssay: "Abutilon theophrasti"
  endpointValue: 90
- compound: "Cc1c(Sc2ccc(F)c(F)c2)c(Oc2ncc(F)cn2)nn1C"
  targetOfAssay: "Abutilon theophrasti"
  endpointValue: 90
- compound: "Fc1cnc(Oc2nn3c(c2Sc2ccc(F)cc2F)CCOCC3)nc1"
  targetOfAssay: "Abutilon theophrasti"
  endpointValue: 80
- compound: "Cc1c(Sc2ccccc2)c(Oc2ncccn2)nn1C"
  targetOfAssay: "Abutilon theophrasti"
  endpointValue: 100

Moving on to another compound below.
Asked: Hello, I am looking for reported herbicidal activity on Abutilon theophrasti with Abutilon theophrasti for CCc1c(Sc2ccc(F)cc2F)c(Oc2ncccn2)nn1C . Could you help?
Given back: 90

* * *

herbicidal activity on Amaranthus retroflexus reference
Test system: Amaranthus retroflexus
testName: Post-emergence herbicidal action
Type: in vivo
measurementParameters: 1280 g/ha, rated visually after about 3 weeks vs untreated controls
Reply with just the number (in %).

In the examples that follow, each entry is paired with its recorded herbicidal activity on Amaranthus retroflexus.
- compound: "CCc1c(Sc2ccc(F)cc2F)c(Oc2ncccn2)nn1C"
  endpointValue: 100
- compound: "Cc1c(Sc2ccc(F)cc2)c(Oc2ncc(F)cn2)nn1C"
  endpointValue: 100
- compound: "COc1cnc(Oc2nn(C)c(C)c2Sc2ccc(F)c(F)c2)nc1"
  endpointValue: 100
- compound: "Cc1c(Sc2ccc(F)cc2)c(Oc2ncccn2)nn1C"
  endpointValue: 100
- compound: "CCc1c(Sc2ccccc2)c(Oc2ncc(F)cn2)nn1C"
  endpointValue: 100

Asked: Fill in the blank: the reported herbicidal activity on Amaranthus retroflexus of Cn1cc(Sc2ccccc2)c(Oc2ncc(Cl)cn2)n1 is ____.
Given back: 80

Asked: Fill in the blank: the reported herbicidal activity on Amaranthus retroflexus of Cc1c(Sc2cccc(F)c2)c(Oc2ncccn2)nn1C is ____.
Given back: 100

Asked: Fill in the blank: the reported herbicidal activity on Amaranthus retroflexus of Cc1c(Sc2cccc(Cl)c2)c(Oc2ncc(F)cn2)nn1C is ____.
Given back: 80

Asked: Fill in the blank: the reported herbicidal activity on Amaranthus retroflexus of Cc1c(Sc2ccc(F)c(F)c2)c(Oc2cnccn2)nn1C is ____.
Given back: 100

Asked: Fill in the blank: the reported herbicidal activity on Amaranthus retroflexus of CCc1c(Sc2ccc(F)cc2F)c(Oc2ncc(OC)cn2)nn1C is ____.
Given back: 90

* * *

System: Amaranthus retroflexus
testName: Post-emergence herbicidal action
Assay type: in vivo
measurementParameters: 1280 g/ha, rated visually after about 3 weeks vs untreated controls
herbicidal activity on Amaranthus retroflexus reference
Reply with just the number (in %).

- compound: "Cc1c(Sc2ccc(F)cc2Cl)c(Oc2ncc(F)cn2)nn1C [Example I-065]"
  endpointValue: 100
- compound: "Cn1cc(Sc2ccc(F)cc2)c(Oc2ncccn2)n1 [Example I-032]"
  endpointValue: 90
- compound: "COc1cnc(Oc2nn(C)c(C)c2Sc2ccc(F)cc2F)nc1 [Example I-205]"
  endpointValue: 90
- compound: "CCc1c(Sc2ccccc2)c(Oc2ncccn2)nn1C [Example I-063]"
  endpointValue: 100
- compound: "COc1cnc(Oc2nn(C)c(C)c2Sc2cccc(Cl)c2)nc1 [Example I-134]"
  endpointValue: 100

Asked: Fill in the blank: the reported herbicidal activity on Amaranthus retroflexus of Cc1c(Sc2ccc(F)cc2F)c(Oc2ncc(F)cn2)nn1C [Example I-115] is ____.
Given back: 100

Asked: Fill in the blank: the reported herbicidal activity on Amaranthus retroflexus of Fc1ccc(Sc2c(Oc3ncccn3)nn3c2CCC3)cc1 [Example I-097] is ____.
Given back: 80

Asked: Fill in the blank: the reported herbicidal activity on Amaranthus retroflexus of CCn1cc(Sc2ccc(F)cc2)c(Oc2ncc(Cl)cn2)n1 [Example I-121] is ____.
Given back: 80

Asked: Fill in the blank: the reported herbicidal activity on Amaranthus retroflexus of CCc1c(Sc2ccc(F)cc2)c(Oc2ncc(OC)cn2)nn1C [Example I-186] is ____.
Given back: 100

* * *

System: Avena fatua
testName: Post-emergence herbicidal action
Assay type: in vivo
measurementParameters: 1280 g/ha, rated visually after about 3 weeks vs untreated controls
herbicidal activity on Avena fatua reference
The reply should read as a number followed by its unit.

In the examples that follow, each entry is paired with its recorded herbicidal activity on Avena fatua.
- compound: "COc1cnc(Oc2nn(C)c(C)c2Sc2ccc(F)cc2)nc1"
  herbicidal activity on Avena fatua: "80%"
- compound: "Cc1c(Sc2ccc(F)c(F)c2)c(Oc2ncc(F)cn2)nn1C"
  herbicidal activity on Avena fatua: "100%"

Asked: Fill in the blank: the reported herbicidal activity on Avena fatua of Cc1c(Sc2cccc(F)c2)c(Oc2ncc(F)cn2)nn1C is ____.
Given back: 80%

Asked: Fill in the blank: the reported herbicidal activity on Avena fatua of Cc1c(Sc2ccc(F)c(F)c2)c(Oc2ncccn2)nn1C is ____.
Given back: 100%

Asked: Fill in the blank: the reported herbicidal activity on Avena fatua of Cc1c(Sc2ccc(F)c(F)c2)c(Oc2cnccn2)nn1C is ____.
Given back: 80%

* * *

System: Veronica persica
testName: Pre-emergence herbicidal action
Assay type: in vivo
measurementParameters: 1280 g/ha, scored visually after about 3 weeks vs untreated controls
Text: Pre-Emergence Herbicidal Action and Crop Plant Compatibility Seeds of monocotyledonous and dicotyledonous weed plants and crop plants were placed in plastic or wood fiber pots and covered with soil. […] After about 3 weeks, the effect of the preparations was scored visually in comparison with untreated controls as percentages. […]
measuredProperty: herbicidal activity on Veronica persica (%)
Reply with just the number (in %).

In the examples that follow, each entry is paired with its recorded herbicidal activity on Veronica persica.
- compound: "Cc1c(Sc2cccc(C(F)(F)F)c2)c(Oc2ncccn2)nn1C"
  targetOfAssay: "Veronica persica"
  herbicidal activity on Veronica persica (%): 90
- compound: "Cc1c(Sc2ccc(F)c(F)c2)c(Oc2ncccn2)nn1C"
  targetOfAssay: "Veronica persica"
  herbicidal activity on Veronica persica (%): 100
- compound: "COc1cnc(Oc2nn(C)c(C)c2Sc2cccc(Cl)c2)nc1"
  targetOfAssay: "Veronica persica"
  herbicidal activity on Veronica persica (%): 100
- compound: "CCc1c(Sc2ccc(F)cc2F)c(Oc2ncc(F)cn2)nn1C"
  targetOfAssay: "Veronica persica"
  herbicidal activity on Veronica persica (%): 100

Moving on to another compound below.
Asked: Hello, I am looking for reported herbicidal activity on Veronica persica with Veronica persica for CCn1cc(Sc2ccccc2)c(Oc2ncccn2)n1 . Could you help?
Given back: 100
